In this section we review reported pKi values for a set of molecules.
STUDY SYSTEM: sigma 2 receptor (Rattus norvegicus (Rat), UniProt Q5U3Y7)
Sequence (Q5U3Y7 whole entry): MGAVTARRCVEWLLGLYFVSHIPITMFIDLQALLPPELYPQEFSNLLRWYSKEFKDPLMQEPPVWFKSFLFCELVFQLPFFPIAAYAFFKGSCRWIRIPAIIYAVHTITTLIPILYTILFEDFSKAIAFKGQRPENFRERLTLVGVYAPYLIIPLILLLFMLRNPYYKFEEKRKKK
MEASUREMENT PARAMETERS: read-out: σ2 Ki
pKi: −log10 of the molar value.

- SMILES CODE: "c1ccc(CN2CC[C@@H]3C[C@@H]2c2cc(N4CCCCC4)ccc23)cc1"
  pKi: 6.50
- SMILES CODE: "Cc1cccc(-c2ccc3c(c2)[C@H]2C[C@H]3CCN2C)c1"
  pKi: 6.88
- SMILES CODE: "Clc1cc(Cl)cc(CN2CC[C@@H]3C[C@@H]2c2cc(N4CCOCC4)ccc23)c1"
  pKi: 7.04
- SMILES CODE: "Clc1cccc(CN2CC[C@@H]3C[C@@H]2c2cc(N4CCCCC4)ccc23)c1"
  pKi: 6.13
- SMILES CODE: "FC(F)(F)c1ccc(-c2ccc3c(c2)[C@H]2C[C@H]3CCN2CCc2ccccc2)cc1"
  pKi: 6.78
- SMILES CODE: "CC(C)=CCN1CCN(c2ccc3c(c2)[C@H]2C[C@H]3CCN2C(=O)OCc2ccccc2)CC1"
  pKi: 7.64
- SMILES CODE: "CCCOC(=O)CCN1CCN(c2ccc3c(c2)[C@H]2C[C@H]3CCN2C(=O)OCc2ccccc2)CC1"
  pKi: 7.24
- SMILES CODE: "C=CCCN1CCN(c2ccc3c(c2)[C@H]2C[C@H]3CCN2C(=O)OCc2ccccc2)CC1"
  pKi: 7.80
- SMILES CODE: "CN1CC[C@@H]2C[C@@H]1c1cc(-c3ccc(C(F)(F)F)cc3)ccc12"
  pKi: 7.37
- SMILES CODE: "Fc1ccccc1CN1CC[C@@H]2C[C@@H]1c1cc(N3CCOCC3)ccc12"
  pKi: 5.90
- SMILES CODE: "CN1CCN(c2ccc3c(c2)[C@H]2C[C@H]3CCN2C(=O)CCc2ccccc2)CC1"
  pKi: 6.45
- SMILES CODE: "C=CCOC(=O)N1CC[C@@H]2C[C@@H]1c1cc(N3CCN(C)CC3)ccc12"
  pKi: 6.35
- SMILES CODE: "CN1CCN(c2ccc3c(c2)[C@H]2C[C@H]3CCN2S(=O)(=O)c2ccccc2)CC1"
  pKi: 6.12

====

In this section we review reported Ki values for a set of compounds.
STUDY SYSTEM: sigma 2 receptor (Rattus norvegicus (Rat))
MEASUREMENT DESCRIPTION: biochemical

- COMPOUND: "Cc1cccc(-c2ccc3c(c2)[C@H]2C[C@H]3CCN2Cc2ccc3c(c2)OCO3)c1"
  Ki: "828 nM"
- COMPOUND: "Clc1cccc(CN2CC[C@@H]3C[C@@H]2c2cc(N4CCCCC4)ccc23)c1"
  Ki: "794 nM"
- COMPOUND: "CN1CCN(c2ccc3c(c2)C2CC3CCN2C(=O)C2CCCCC2)CC1 (racemic) [(±)-TH-1-106]"
  Ki: "144 nM"
- COMPOUND: "Clc1cc(Cl)cc(CN2CC[C@@H]3C[C@@H]2c2cc(N4CCOCC4)ccc23)c1"
  Ki: "100 nM"
